# Tested on: RAW264.7
# Assay Protocol: Antiinflammatory activity in mouse RAW264.7 cells assessed as inhibition of LPS-stimulated TNF-alpha production at 6.0 uM preincubated for 2 hrs followed by LPS stimulaton measured after 22 hrs by ELISA relative to control
# Format: functional
Activity calls are given as the source filed them. No cut-off for these calls is given here.
# output must be one of active, inactive

State the result this test recorded for CN1C/C(=C\c2cccnc2)C(=O)/C(=C/c2cc([N+](=O)[O-])ccc2F)C1 .
active

Try the compound O=C1/C(=C/c2ccncc2)CN(S(=O)(=O)c2ccc(C(F)(F)F)cc2)C/C1=C\c1ccccc1F
active

Try the compound O=C1/C(=C/c2cccnc2)CN(S(=O)(=O)c2ccc(C(F)(F)F)cc2)C/C1=C\c1ccccc1F
active

Try the compound O=C1/C(=C/c2ccncc2)CN(S(=O)(=O)c2ccc([N+](=O)[O-])cc2)C/C1=C\c1ccccc1F
inactive

Try the compound N#Cc1ccc(S(=O)(=O)N2C/C(=C\c3ccncc3)C(=O)/C(=C/c3ccccc3F)C2)cc1
active

More entries:
State the result this test recorded for O=C1/C(=C/c2cccnc2)CN(S(=O)(=O)c2ccc(F)cc2)C/C1=C\c1ccccc1F .
inactive

Try the compound O=C1/C(=C/c2cccnc2)CN(S(=O)(=O)c2ccc(F)cc2)C/C1=C\c1ccccc1C(F)(F)F
active

Try the compound O=C1/C(=C/c2ccncc2)CN(S(=O)(=O)c2ccc(Cl)cc2)C/C1=C\c1ccccc1F
active

---

# Test system: SMMC-7721
# Assay Protocol: Cytotoxicity against human SMMC7721 cells assessed as reduction in cell viability incubated for 24 hrs by MTT assay
# Assay type: functional, cell-based
# Measurement Context: SMMC-7721, 24 h
Quantity Kind: pIC50
Numbers only, as −log10 of the molar value.

Param item = O=C1/C(=C/c2ccncc2)CN(S(=O)(=O)c2ccccc2)C/C1=C\c1ccccc1C(F)(F)F ; retrieve measured pIC50.
5.18

Give pIC50 for each listed item.
1. CN1C/C(=C\c2ccncc2)C(=O)/C(=C/c2cc([N+](=O)[O-])ccc2F)C1
2. O=C1/C(=C/c2cccnc2)CN(S(=O)(=O)c2ccc(C(F)(F)F)cc2)C/C1=C\c1ccccc1C(F)(F)F

4.83
5.76

---

# Test system: L02
# Assay Protocol: Cytotoxicity against human LO2 cells assessed as reduction in cell viability incubated for 24 hrs by MTT assay
# Assay type: cell-based
# Measurement Context: L02, 24 h
Can you tell me IC50 for the items I'm about to list?
One number for each entry, in µM.

# annotated cases, reported IC50 shown
Form field - read-out: IC50; system: L02; submitted item: O=C1/C(=C/c2ccncc2)CNC/C1=C\c1ccccc1F
14.7

Try the compound N#Cc1ccc(S(=O)(=O)N2C/C(=C\c3ccncc3)C(=O)/C(=C/c3ccccc3C(F)(F)F)C2)cc1
17.6

Try the compound CN1C/C(=C\c2ccncc2)C(=O)/C(=C/c2cc([N+](=O)[O-])ccc2F)C1
17.6

Give IC50 for each listed item.
1. N#Cc1ccc(S(=O)(=O)N2C/C(=C\c3cccnc3)C(=O)/C(=C/c3ccccc3C(F)(F)F)C2)cc1
2. CN1C/C(=C\c2cccnc2)C(=O)/C(=C/c2cc([N+](=O)[O-])ccc2F)C1
3. O=C1/C(=C/c2ccncc2)CN(S(=O)(=O)c2ccc(Cl)cc2)C/C1=C\c1ccccc1C(F)(F)F
4. O=C1/C(=C/c2cccnc2)CN(S(=O)(=O)c2ccc(Br)cc2)C/C1=C\c1ccccc1C(F)(F)F
5. COc1cc(/C=C/C(=O)CC(=O)/C=C/c2ccc(O)c(OC)c2)ccc1O
6. O=C1/C(=C/c2cccnc2)CN(S(=O)(=O)c2ccc(Cl)cc2)C/C1=C\c1ccccc1C(F)(F)F

1: 13.2; 2: 15.7; 3: 14.9; 4: 13.3; 5: 22.7; 6: 11.9

---

Can you tell me pIC50 for the items I'm about to list?
# Tested on: SMMC-7721
# Assay Protocol: Cytotoxicity against human SMMC7721 cells assessed as reduction in cell viability incubated for 24 hrs by MTT assay
# Assay type: functional, cell-based
# Measurement Context: SMMC-7721, 24 h
Give bare numbers, as −log10 of the molar value.

# annotated cases, reported pIC50 shown
Form field - read-out: pIC50; system: SMMC-7721; submitted item: CN1C/C(=C\c2ccncc2)C(=O)/C(=C/c2ccc(F)cc2Br)C1
4.62

Try the compound O=C1/C(=C/c2ccncc2)CN(S(=O)(=O)c2ccc(F)cc2)C/C1=C\c1ccccc1C(F)(F)F
5.03

Try the compound O=C1/C(=C/c2cccnc2)CN(S(=O)(=O)c2ccc([N+](=O)[O-])cc2)C/C1=C\c1ccccc1C(F)(F)F
4.80

Try the compound N#Cc1ccc(S(=O)(=O)N2C/C(=C\c3cccnc3)C(=O)/C(=C/c3ccccc3F)C2)cc1
4.81

Try the compound O=C1/C(=C/c2ccncc2)CN(S(=O)(=O)c2ccc(Br)cc2)C/C1=C\c1ccccc1F
4.90

Give pIC50 for each listed item.
1. CN1C/C(=C\c2ccc(C(F)(F)F)cc2)C(=O)/C(=C/c2cccnc2)C1
2. O=C1/C(=C/c2ccncc2)CN(S(=O)(=O)c2ccc(C(F)(F)F)cc2)C/C1=C\c1ccccc1F
3. O=C1/C(=C/c2cccnc2)CN(S(=O)(=O)c2ccc(Cl)cc2)C/C1=C\c1ccccc1F
4. COc1ccc(/C=C2\CN(C)C/C(=C\c3cccnc3)C2=O)c(OC)c1OC
5. CN1C/C(=C\c2ccc(C#N)cc2)C(=O)/C(=C/c2cccnc2)C1
6. O=C1/C(=C/c2ccncc2)CN(S(=O)(=O)c2ccc(C(F)(F)F)cc2)C/C1=C\c1ccccc1C(F)(F)F
7. N#Cc1ccc(S(=O)(=O)N2C/C(=C\c3cccnc3)C(=O)/C(=C/c3ccccc3C(F)(F)F)C2)cc1
8. O=C1/C(=C/c2cccnc2)CN(S(=O)(=O)c2ccc(C(F)(F)F)cc2)C/C1=C\c1ccccc1F

5.32
4.95
4.79
4.86
4.87
5.42
5.02
5.10

Give pIC50 for each listed item.
1. CN1C/C(=C\c2ccncc2)C(=O)/C(=C/c2ccccc2F)C1
2. CC(=O)Nc1ccc(S(=O)(=O)N2C/C(=C\c3ccncc3)C(=O)/C(=C/c3ccccc3F)C2)cc1
3. CN1C/C(=C\c2ccncc2)C(=O)/C(=C/c2ccc(C#N)cc2)C1
4. COc1cc(/C=C2\CN(C)C/C(=C\c3ccncc3)C2=O)cc(OC)c1

1: 5.15; 2: 4.87; 3: 4.73; 4: 5.24

---

# Test system: RAW264.7
# Assay Protocol: Antiinflammatory activity in mouse RAW264.7 cells assessed as inhibition of LPS-stimulated TNF-alpha production at 6.0 uM preincubated for 2 hrs followed by LPS stimulaton measured after 22 hrs by ELISA relative to control
# Assay type: functional
The source made the active and inactive calls. The calls are words filed in the database; no cut-off is given here.
Quantity Kind: inhibition

# annotated cases, reported inhibition shown
Param item = O=C1/C(=C/c2cccnc2)CN(S(=O)(=O)c2ccc(Br)cc2)C/C1=C\c1ccccc1C(F)(F)F ; retrieve measured inhibition.
Active

Try the molecule O=C1/C(=C/c2ccncc2)CNC/C1=C\c1ccccc1C(F)(F)F
Active

Try the molecule COc1cc(/C=C2\CN(C)C/C(=C\c3ccncc3)C2=O)cc(OC)c1OC
Active

Try the molecule CN1C/C(=C\c2ccncc2)C(=O)/C(=C/c2ccc(C(F)(F)F)cc2)C1
Active

Give inhibition for each listed item.
1. O=C1/C(=C/c2ccncc2)CN(S(=O)(=O)c2ccc(Br)cc2)C/C1=C\c1ccccc1F
2. O=C1/C(=C/c2cccnc2)CN(S(=O)(=O)c2ccc(Br)cc2)C/C1=C\c1ccccc1F
3. Cc1ccc(S(=O)(=O)N2C/C(=C\c3cccnc3)C(=O)/C(=C/c3ccccc3F)C2)cc1

["inactive", "inactive", "Active"]

Give inhibition for each listed item.
1. CN1C/C(=C\c2ccncc2)C(=O)/C(=C/c2ccc(F)cc2Br)C1
2. O=C1/C(=C/c2cccnc2)CN(S(=O)(=O)c2ccc(Cl)cc2)C/C1=C\c1ccccc1C(F)(F)F

1. Active
2. Active

Give inhibition for each listed item.
1. O=C1/C(=C/c2cccnc2)CN(S(=O)(=O)c2ccccc2)C/C1=C\c1ccccc1F
2. Cc1ccc(S(=O)(=O)N2C/C(=C\c3cccnc3)C(=O)/C(=C/c3ccccc3C(F)(F)F)C2)cc1
3. CN1C/C(=C\c2cccnc2)C(=O)/C(=C/c2ccccc2F)C1
4. CN1C/C(=C\c2ccncc2)C(=O)/C(=C/c2ccc(C#N)cc2)C1
5. CN1C/C(=C\c2cccnc2)C(=O)/C(=C/c2ccc(F)cc2Br)C1
6. O=C1/C(=C/c2cccnc2)CN(S(=O)(=O)c2ccccc2)C/C1=C\c1ccccc1C(F)(F)F
7. CC(=O)Nc1ccc(S(=O)(=O)N2C/C(=C\c3cccnc3)C(=O)/C(=C/c3ccccc3C(F)(F)F)C2)cc1
8. O=C1/C(=C/c2cccnc2)CNC/C1=C\c1ccccc1F

1. inactive
2. Active
3. Active
4. Active
5. Active
6. Active
7. Active
8. inactive

Give inhibition for each listed item.
1. CC(=O)Nc1ccc(S(=O)(=O)N2C/C(=C\c3ccncc3)C(=O)/C(=C/c3ccccc3F)C2)cc1
2. O=C1/C(=C/c2cccnc2)CNC/C1=C\c1ccccc1C(F)(F)F

1. inactive
2. Active

All figures here come from ChEMBL document CHEMBL4339189.
